// provenance: patent US7893092B2

recorded metric: melting point

INSERT INTO assay_data (compound, recorded_metric, reported_result) VALUES
  ('CCCCC(CS(C)(=N)=O)NC(=O)c1cc(Cl)cc(C)c1NC(=O)c1cc(C(F)(F)F)nn1-c1ncccc1Cl (centres unmarked)', 'melting point', '225 to 226 °C'),
  ('Cc1cc(Cl)cc(C(=O)NC(C)(C)CS(C)(=O)=NC(=O)C(F)(F)F)c1NC(=O)c1cc(C(F)(F)F)nn1-c1ncccc1Cl (centres unmarked) [T3.1.1]', 'melting point', '112 to 115 °C'),
  ('COC(=O)C(CCS(C)(=N)=O)NC(=O)c1cc(Cl)cc(C)c1NC(=O)c1cc(C(F)(F)F)nn1-c1ncccc1Cl (centres unmarked)', 'melting point', '207 to 209 °C'),
  ('Cc1cc(C#N)cc(C(=O)NC2(CS(C)(=O)=NC(=O)C(F)(F)F)CC2)c1NC(=O)c1cc(C(F)(F)F)nn1-c1ncccc1Cl (centres unmarked)', 'melting point', '187 to 189 °C'),
  ('Cc1cc(Cl)cc(C(=O)NCc2ccccc2S(C)(=N)=O)c1NC(=O)c1cc(C(F)(F)F)nn1-c1ncccc1Cl (centres unmarked) [T34.1.1]', 'melting point', '235 to 238 °C'),
  ('Cc1cc(Cl)cc(C(=O)NCC(C)S(C)(=O)=NC(=O)C(F)(F)F)c1NC(=O)c1cc(C(F)(F)F)nn1-c1ncccc1Cl (centres unmarked)', 'melting point', '125 to 130 °C'),
  ('Cc1cc(Cl)cc(C(=O)NCCCCCCS(C)(=O)=NC(=O)C(F)(F)F)c1NC(=O)c1cc(C(F)(F)F)nn1-c1ncccc1Cl (centres unmarked) [T47.1.1]', 'melting point', '110 to 113 °C'),
  ('CCC(CS(C)(=N)=O)NC(=O)c1cc(Cl)cc(C)c1NC(=O)c1cc(C(F)(F)F)nn1-c1ncccc1Cl (centres unmarked) [T38.1.1]', 'melting point', '180 to 185 °C');

[in] May I ask what melting point has been recorded for CCC(CS(C)(=O)=NC(=O)C(F)(F)F)NC(=O)c1cc(Cl)cc(C)c1NC(=O)c1cc(C(F)(F)F)nn1-c1ncccc1Cl (centres unmarked) [T39.1.1] ?
[out] 170 to 174 °C

[in] May I ask what melting point has been recorded for Cc1cc(Cl)cc(C(=O)NCCCCCCS(C)(=N)=O)c1NC(=O)c1cc(C(F)(F)F)nn1-c1ncccc1Cl (centres unmarked) [T46.1.1] ?
[out] 148 to 152 °C

[in] May I ask what melting point has been recorded for Cc1cc(Cl)cc(C(=O)NC(CS(C)(=N)=O)C(C)C)c1NC(=O)c1cc(C(F)(F)F)nn1-c1ncccc1Cl (centres unmarked) ?
[out] 248 to 250 °C
